The origin of these recorded values is BindingDB's records for doi:10.1021/acsmedchemlett.5b00489.

Assay: Antagonist activity at human recombinant CXCR2 assessed as inhibition of CXCL1-induced neutrophil chemotaxis after 45 mins by calcein-AM dye based plate reader method
pIC50: −log10 of the molar value.
Use 6 as the dividing line for pIC50, with the line itself on the y side and lower values as n.

Worked examples follow.
O=C(Nc1ccc(Cl)c(S(=O)(=O)C2CCOCC2)c1O)Nc1cccc(Cl)c1Cl | y
CC(C)S(=O)(=O)c1c(Cl)ccc(NC(=O)Nc2cccc(Cl)c2Cl)c1O | y
NS(=O)(=O)c1c(Cl)ccc(NC(=O)Nc2cccc(Cl)c2Cl)c1O | y
CN1CCC[C@H](S(=O)(=O)c2c(Cl)ccc(NC(=O)Nc3cccc(F)c3Cl)c2O)CC1 | y

Can CCN1CCN(S(=O)(=O)c2c(Cl)ccc(NC(=O)Nc3cccc(F)c3Cl)c2O)CC1 be said to have pIC50 at or above 6?
n

Can C[C@@H]1CN(S(=O)(=O)c2c(Cl)ccc(NC(=O)Nc3cccc(Cl)c3Cl)c2O)C[C@H](C)O1 be said to have pIC50 at or above 6?
n

Can O=C(Nc1ccc(Cl)c(C(=O)N2CCCCC2)c1O)Nc1cccc(F)c1Cl be said to have pIC50 at or above 6?
y

Can O=C(Nc1ccc(Cl)c(S(=O)(=O)C2CCOC2)c1O)Nc1cccc(Cl)c1Cl (centres undefined) be said to have pIC50 at or above 6?
y

Can C[C@@H]1CN(S(=O)(=O)c2c(Cl)ccc(NC(=O)Nc3cccc(F)c3Cl)c2O)C[C@H](C)O1 be said to have pIC50 at or above 6?
n
